Entries and their selectivity ratio
- Procedure details: Selectivity index, ratio of EC50 for human HepG2 cells to EC50 for antiplasmodial activity against multidrug-resistant Plasmodium falciparum Dd2 infected in human A-positive erythrocytes
- Format: toxicity, cell-based
- Condition description: read-out: Ratio EC50
Where a SMILES comes first, the peptide text is derived from it. [ ]: non-standard residue; d: D form. The star is where a group is joined. X1 = CC(C)C[C@@H](C[N+]1=C2CCCN2CCC1)N*; Pip = O=C(O)[C@@H]1CCCCN1; Iva = CC[C@](C)(N)C(=O)O; Aib = CC(C)(N)C(=O)O; βAla = NCCC(=O)O

As a guide, the following entries are already answered.
- Molecule: "CCCCCCCC(=O)NC(C)(C)C(=O)NCC(=O)N[C@@H](CC(C)C)C(=O)NC(C)(C)C(=O)NCC(=O)NCC(=O)N[C@H](C(=O)NC(C)(C)C(=O)NCC(=O)N[C@H](C(=O)N[C@H](CO)CC(C)C)C(C)C)C(C)C"
  Measurement label: "selectivity ratio"
  Measured: "> 10"
- Molecule: "CC[C@H](C)[C@H](NC(=O)[C@H](C)NC(=O)[C@@H]1CCCN1C(=O)C(C)(C)NC(=O)[C@H](CC(C)C)NC(=O)[C@H](CCC(N)=O)NC(=O)C(C)(C)NC(C)=O)C(=O)NC(C)(C)C(=O)N1CCC[C@H]1C(=O)NC(C)(C)C(=O)N[C@@H](CC(C)C)C(=O)NC(C)(C)C(=O)N1CCC[C@H]1C(=O)N[C@H](CO)CC(C)C (HELM PEPTIDE1{[ac].[Aib].Q.L.[Aib].P.A.I.[Aib].P.[Aib].L.[Aib].P.[CC(C)C[C@@H](CO)N[*:1]]}$$$$V2.0)"
  Measurement label: "selectivity ratio"
  Measured: "> 86"
- Molecule: "CC[C@H](C)[C@H](NC(=O)C(C)(C)NC(=O)[C@H](CCC(N)=O)NC(=O)C(C)(C)NC(=O)C(C)(C)NC(=O)[C@H](C)NC(=O)[C@H](C)NC(=O)[C@H](C)NC(=O)C(C)(C)NC(C)=O)C(=O)NC(C)(C)C(=O)NCC(=O)N[C@@H](CC(C)C)C(=O)NC(C)(C)C(=O)N1CCC[C@H]1C(=O)N[C@H](C(=O)NC(C)(C)C(=O)N[C@](C)(CC)C(=O)N[C@@H](CCC(N)=O)C(=O)N[C@@H](CCC(N)=O)C(=O)N[C@H](CO)Cc1ccccc1)C(C)C"
  Measurement label: "selectivity ratio"
  Measured: 6
- Molecule: "CC[C@H](C)[C@H](NC(=O)[C@H](CC(C)C)NC(=O)[C@H](CC(N)=O)NC(=O)C(C)(C)NC(C)=O)C(=O)NC(C)(C)C(=O)N1CCC[C@H]1C(=O)N[C@](C)(CC)C(=O)N[C@@H](CC(C)C)C(=O)NC(C)(C)C(=O)N1CCC[C@H]1C(=O)N[C@H](CO)CC(C)C (HELM PEPTIDE1{[ac].[Aib].N.L.I.[Aib].P.[CC[C@@](C)(N[*:1])C(=O)[*:2]].L.[Aib].P.[CC(C)C[C@@H](CO)N[*:1]]}$$$$V2.0)"
  Measurement label: "selectivity ratio"
  Measured: "> 35"
- Molecule: "CC[C@](C)(NC(=O)[C@H](CC(C)C)NC(=O)[C@H](C)NC(=O)C(C)(C)NC(=O)[C@@H]1CCCCN1C(=O)C(C)(C)NC(=O)C(C)(C)NC(=O)CNC(=O)CCNC(=O)[C@H](CC(C)C)NC(=O)C(C)(C)NC(=O)C(C)(C)NC(=O)[C@@H]1CCCCN1C(=O)C(C)(C)NC(=O)[C@@H]1CCCCN1C(C)=O)C(=O)N[C@@H](CC(C)C)C[N+]1=C2CCCN2CCC1 (Ac-[Pip][Aib][Pip][Aib][Aib]L[βAla]G[Aib][Aib][Pip][Aib]AL[Iva]-X1)"
  Measurement label: "selectivity ratio"
  Measured: "> 64"

IN: Item CC[C@@](C)(NC(=O)[C@H](CC(C)C)NC(=O)C(C)(C)NC(=O)[C@@H]1CCCN1C(=O)C(C)(C)NC(=O)[C@@H](NC(=O)[C@H](C)NC(=O)[C@@H]1CCCN1C(=O)C(C)(C)NC(=O)[C@H](CC(C)C)NC(=O)[C@H](CCC(N)=O)NC(=O)C(C)(C)NC(C)=O)C(C)C)C(=O)N1CCC[C@H]1C(=O)N[C@H](CO)CC(C)C has what recorded selectivity ratio?
OUT: > 19

IN: Queued: CC(=O)NC(C)(C)C(=O)N[C@@H](CC(N)=O)C(=O)N[C@@H](CC(C)C)C(=O)NC(C)(C)C(=O)N1CCC[C@H]1C(=O)N[C@@H](CO)C(=O)N[C@H](C(=O)NC(C)(C)C(=O)N1CCC[C@H]1C(=O)NC(C)(C)C(=O)N[C@@H](CC(C)C)C(=O)NC(C)(C)C(=O)N1CCC[C@H]1C(=O)N[C@H](CO)CC(C)C)C(C)C (HELM PEPTIDE1{[ac].[Aib].N.L.[Aib].P.S.V.[Aib].P.[Aib].L.[Aib].P.[CC(C)C[C@@H](CO)N[*:1]]}$$$$V2.0)
OUT: > 35
